test system: LOX IMVI melanoma; assay: NCI tumour cell line growth inhibition, 48 h
// n strictly below 30 µM in TGI; y otherwise

{"Compound": "COC(=O)CCC1CCC(c2cc(F)ccc2F)(S(=O)(=O)c2ccc(Cl)cc2)CC1 (centres undefined)", "Category label": "y"}
{"Compound": "O=S(=O)(c1cccc2c(Cl)cccc12)N1CCCNCC1", "Category label": "n"}
{"Compound": "O=c1nc(NC(c2ccccc2)(c2ccccc2)c2ccccc2)ccn1CCNCCn1ccc(NC(c2ccccc2)(c2ccccc2)c2ccccc2)nc1=O", "Category label": "n"}
{"Compound": "Oc1[nH]c2c(Br)cccc2c1C1=Nc2ccccc2/C1=N/OCCN1CCCC1", "Category label": "n"}
{"Compound": "CC(=O)OCC(=O)[C@@]12OC(C)(C)O[C@@H]1C[C@H]1[C@@H]3CC=C4C[C@@H](O)CC[C@]4(C)[C@H]3CC[C@@]12C", "Category label": "y"}
{"Compound": "CC1=NN(C(=O)CC(=O)Nc2ccc(C)cc2)C(=O)C1N=Nc1ccc(S(=O)(=O)c2ccc(N=NC3C(=O)N(C(=O)CC(=O)Nc4ccc(C)cc4)N=C3C)cc2)cc1 (centres undefined)", "Category label": "y"}
{"Compound": "CC1=NN(C(=O)CC(=O)NC(=O)CC(=O)Nc2ccccc2F)C(=O)C1N=Nc1ccc([N+](=O)[O-])cc1 (centres undefined)", "Category label": "y"}
{"Compound": "COc1cc(-n2cc(-c3ccc(Cl)cc3)nc2SCc2cccc(C#N)c2)cc(OC)c1OC", "Category label": "y"}
{"Compound": "CC1=C(C(=O)N(C(C)C)C(C)C)CC(C(=O)N(C(C)C)C(C)C)=C(C)N1", "Category label": "y"}
{"Compound": "CCCCCCCCCCC(C(O)c1ccccc1)N1CCCCC1 (centres undefined)", "Category label": "n"}
{"Compound": "OC1[C@H](O)CN(OCc2ccccc2)C[C@@H]1O (some centres undefined)", "Category label": "y"}
{"Compound": "Oc1ccccc1CNCC12CC3CC(CC(C3)C1)C2", "Category label": "y"}
{"Compound": "CC(C)COCC(CN(Cc1ccccc1)c1ccccc1)N1CCCC1 (centres undefined)", "Category label": "n"}
{"Compound": "C[N+]1(Cc2ccc(Cl)c(Cl)c2)CCCC1C1CCCN(Cc2ccc(Cl)c(Cl)c2)C1 (centres undefined)", "Category label": "y"}
{"Compound": "Nc1ccc(CCSSCCc2ccc(N)cc2)cc1", "Category label": "y"}
{"Compound": "COC(=O)NC12CC3CC(CC(F)(C3)C1)C2", "Category label": "y"}
{"Compound": "CC(C)(C)c1ccc(-n2c3nc(=O)n(-c4ccccc4CO)c(=O)c-3cc3ccccc32)cc1", "Category label": "y"}
{"Compound": "C/C(=N\\NC(=S)N1CCN(C)CC1)c1nc2ncccc2[nH]1", "Category label": "y"}
{"Compound": "COc1cc(/C=C2\\C(=O)N(c3ccccc3Cl)C(c3ccccc3)S2(=O)=O)cc(OC)c1OC (centres undefined)", "Category label": "y"}
